ASSAY METHOD TEXT: small molecules captured by biotinylated probe aFGF10 – biochemical, small-molecule microarray, fluorescence 635/667, stem cell growth factor project, primary screen (AID 1071);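 note: score merges 667 nm spot intensity and signal to noise from triplicate slides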
CONDITIONS: higher = more signal; small-molecule microarray, probe aFGF10, fluorescence unless noted
PROPERTY LABEL: composite z-score
Note: the reply should be a number with no unit written.

See these solved cases before continuing.
[
  {
    "COMPOUND": "CCCc1cc2c(n1Cc1cccc(Cl)c1)C(C)C1CN(C(=O)c3ccccc3)C(C)(C(=O)OC)C21 (centres undefined)",
    "composite z-score": 0.241
  },
  {
    "COMPOUND": "COC(=O)[C@H]1[C@H](c2ccccc2)C(=O)[C@]2(O)c3ccccc3O[C@@]12c1ccccc1",
    "composite z-score": 0.273
  },
  {
    "COMPOUND": "OCc1ccc(C2=CC(c3cccs3)N(Cc3cccc(OC(F)(F)F)c3)CC2)cc1 (centres undefined)",
    "composite z-score": -0.242
  }
]

We next turn to a different compound, shown below.
response.value for CCOC(=O)[C@H]1CC=C2C(=O)Oc3ccc(Br)cc3[C@@H]21 (field: composite z-score) = -0.332

* * *

ASSAY METHOD TEXT: compounds binding Alexa647 anti-His antibody – biochemical, small-molecule microarray, 635 nm fluorescence, artefact control for SMM control protein annotation, primary screen (AID 1128);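 note: score merges feature fluorescence with signal-to-noise for each printed compound spot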
CONDITIONS: higher = more signal
PROPERTY LABEL: composite z-score
Note: the reply should be a number with no unit written.

[
  {
    "COMPOUND": "COC(=O)[C@H]1[C@H](c2ccccc2)C(=O)[C@]2(O)c3ccccc3O[C@@]12c1ccccc1",
    "ASSAY VALUE": -0.179
  }
]

response.value for CCOC(=O)[C@H]1CC=C2C(=O)Oc3ccc(Br)cc3[C@@H]21 (field: composite z-score) = 0.819

response.value for CCCc1cc2c(n1Cc1cccc(Cl)c1)C(C)C1CN(C(=O)c3ccccc3)C(C)(C(=O)OC)C21 (centres undefined) (field: composite z-score) = 2.37

response.value for COC(=O)[C@H]1[C@@H](O)[C@@]2(O)c3c(OC)cc(OC)cc3O[C@@]2(c2ccc(OC)cc2)[C@@H]1c1ccccc1 (field: composite z-score) = 0.287

* * *

ASSAY METHOD TEXT: probe aShh binding to arrayed compounds – biochemical, biotinylated probe, 635/667 nm fluorescence, primary screen (AID 1114);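 note: probe is biotin-labelled aShh protein from a stem cell growth factor screen; measures binding of labelled protein to compounds printed on the slide; score merges feature fluorescence at 667 nm with signal-to-noise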
CONDITIONS: higher = more signal; small-molecule microarray, probe aShh, fluorescence unless noted
PROPERTY LABEL: composite z-score
Note: the reply should be a number with no unit written.

[
  {
    "COMPOUND": "COc1cc2c(cc1O)C=[N+](C)CC2",
    "composite z-score": -0.138
  },
  {
    "COMPOUND": "CCCc1cc2c(n1Cc1cccc(Cl)c1)C(C)C1CN(C(=O)c3ccccc3)C(C)(C(=O)OC)C21 (stereo unspecified)",
    "composite z-score": 0.261
  }
]

response.value for COc1cc2c(cc1O)C(C)N(C)CC2 (stereo unspecified) (field: composite z-score) = -0.0769

response.value for OCc1ccc(C2=CC(C3CC3)N(Cc3sc4ccccc4c3Cl)CC2)cc1 (stereo unspecified) (field: composite z-score) = -0.0146

response.value for C[C@@H]1Cc2c(cnc3c2CN(C)CC3)CO1 (field: composite z-score) = 0.149

response.value for COC(=O)[C@H]1C(=O)c2ccccc2O[C@@](C(=O)OC)(c2ccccc2)[C@@H]1c1ccccc1 (field: composite z-score) = -0.352

* * *

ASSAY METHOD TEXT: calcein-AM signal in unstimulated myeloma cells – cell-based, calcein-AM fluorescence, 48 h, PK04 Diversity Set, profiling panel (AID 1166);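 note: cells grown under basal conditions without added stimulus; test concentration not given here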
CONDITIONS: higher = more signal; RPMI8226 myeloma viability, calcein-AM fluorescence, 48 h unless noted
PROPERTY LABEL: z-score
Note: the reply should be a number with no unit written.

See these solved cases before continuing.
[
  {
    "MOLECULE": "C=C(CC1(CNP(=O)(c2ccccc2)c2ccccc2)CC1)c1ccccc1",
    "z-score": -0.614
  },
  {
    "MOLECULE": "CCOC(=O)[C@H]1CC=C2C(=O)Oc3ccccc3[C@@H]21",
    "z-score": -0.132
  },
  {
    "MOLECULE": "CCc1cc2c(nc1CC)CCN(CCC(C)=NOC)C2",
    "z-score": -2.14
  },
  {
    "MOLECULE": "O=P(c1ccccc1)(c1ccccc1)N1CC2(CC2)CC(O)(c2ccccc2)C1 (configuration not stated)",
    "z-score": -0.475
  },
  {
    "MOLECULE": "OCc1ccc(C2=CC(C3CC3)N(Cc3sc4ccccc4c3Cl)CC2)cc1 (configuration not stated)",
    "z-score": -3.29
  },
  {
    "MOLECULE": "COc1cc2c(cc1O)C=[N+](C)CC2",
    "z-score": 0.245
  },
  {
    "MOLECULE": "CCCc1cc2c(n1Cc1ccc(C)cc1)C(C)C1CN(C(=O)c3ccccc3)C(C)(C(=O)OC)C21 (configuration not stated)",
    "z-score": -4.73
  },
  {
    "MOLECULE": "CN1CCc2nc(CO)c(CO)cc2C1",
    "z-score": 0.672
  },
  {
    "MOLECULE": "CCCC=C(CCC)[C@@H](NP(=O)(c1ccccc1)c1ccccc1)c1ccccc1",
    "z-score": -1.27
  },
  {
    "MOLECULE": "CCCc1cc2c(n1Cc1ccco1)C(C)C1CN(C(=O)c3ccccc3)C(C)(C(=O)OC)C21 (configuration not stated)",
    "z-score": -2.66
  }
]

We next turn to a different molecule, shown below.
response.value for CCOC(=O)[C@H]1CC=C2C(=O)Oc3ccc(Br)cc3[C@@H]21 (field: z-score) = -3.93

* * *

Listed compounds paired with reported composite Z-score
ASSAY METHOD TEXT: probe aXIP binding to arrayed compounds – biochemical, NeuroSMM set, 635/667 nm fluorescence, primary screen (AID 1119);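 note: probe is the protein aXip251-270 applied at 1 µg/mL to compound-printed slides; binding of probe to printed compounds measured as 667 nm fluorescence plus signal to noise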
CONDITIONS: small-molecule microarray; higher = more signal, called active from +8 up or from −8 down unless noted
Activity calls are given as the source filed them.

See these solved cases before continuing.
[
  {
    "COMPOUND": "OCc1ccc(C2=CC(c3cccs3)N(Cc3cccc(OC(F)(F)F)c3)CC2)cc1 (stereo not drawn)",
    "composite Z-score": "-0.375 (inactive)"
  },
  {
    "COMPOUND": "C[C@@H]1Cc2c(cnc3c2CN(C)CC3)CO1",
    "composite Z-score": "0.266 (inactive)"
  }
]

We next turn to a different compound, shown below.
response.value for C[C@H]1O[C@H]2C3=C(C(=O)[C@@H]4O[C@@H]4[C@@H]3O)[C@@H]1[C@@H]1[C@@H](C)OC=C3[C@@H](O)[C@H]4O[C@H]4C(=O)[C@]312 (field: composite Z-score) = 0.19 (inactive)

* * *

SUBJECT OF TEST: Albumin (Bos taurus) (UniProt P02769)
Sequence (P02769 whole entry, looked up): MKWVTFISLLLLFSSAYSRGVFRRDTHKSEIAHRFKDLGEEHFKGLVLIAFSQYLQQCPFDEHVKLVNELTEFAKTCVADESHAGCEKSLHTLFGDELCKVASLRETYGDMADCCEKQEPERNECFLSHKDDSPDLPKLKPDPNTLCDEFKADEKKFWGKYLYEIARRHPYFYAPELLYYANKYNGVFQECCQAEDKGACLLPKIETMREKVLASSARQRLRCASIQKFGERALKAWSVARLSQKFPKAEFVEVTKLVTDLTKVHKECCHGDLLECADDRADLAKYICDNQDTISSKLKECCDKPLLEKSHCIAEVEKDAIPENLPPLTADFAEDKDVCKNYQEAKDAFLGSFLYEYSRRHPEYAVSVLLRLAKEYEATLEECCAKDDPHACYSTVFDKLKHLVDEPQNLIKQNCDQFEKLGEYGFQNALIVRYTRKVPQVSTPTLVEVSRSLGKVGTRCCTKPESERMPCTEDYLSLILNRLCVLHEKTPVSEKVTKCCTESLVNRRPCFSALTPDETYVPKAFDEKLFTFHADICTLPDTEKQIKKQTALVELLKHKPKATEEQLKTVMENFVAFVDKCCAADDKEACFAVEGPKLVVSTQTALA
ASSAY METHOD TEXT: compounds binding labelled BSA control protein – biochemical, small-molecule microarray, Alexa647 label, 635/667 nm fluorescence, artefact control for SMM control protein annotation, profiling panel (AID 1118);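 note: score merges 667 nm emission intensity and signal-to-noise per printed compound spot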
CONDITIONS: BSA-A647 binding, fluorescence 635 nm, higher = more signal
PROPERTY LABEL: composite z-score
Note: the reply should be a number with no unit written.

response.value for CCCC[C@@H]1C[C@H]1[C@@H](NP(=O)(c1ccccc1)c1ccccc1)c1ccc(Cl)cc1 (field: composite z-score) = 0.708

response.value for OCc1ccc(C2=CC(c3cccs3)N(Cc3cccc(OC(F)(F)F)c3)CC2)cc1 (stereo unspecified) (field: composite z-score) = 0.343

response.value for C[C@@H]1Cc2c(cnc3c2CN(C)CC3)CO1 (field: composite z-score) = -0.537

response.value for COC(=O)C1(C)C=C2C(=C(C)C(=O)C2C)CN1 (stereo unspecified) (field: composite z-score) = 0.395

response.value for CCCc1cc2c(n1Cc1ccc(C)cc1)C(C)C1CN(C(=O)c3ccccc3)C(C)(C(=O)OC)C21 (stereo unspecified) (field: composite z-score) = 0.864

response.value for CN1CCC(c2ccc(CO)cc2)=CC1C1CC1 (stereo unspecified) (field: composite z-score) = -1.02

response.value for CCOC(=O)[C@H]1CC=C2C(=O)Oc3ccccc3[C@@H]21 (field: composite z-score) = 0.445

response.value for COC(=O)NCC=Cc1nc(CCC=CC(=O)O[C@H]2CC3CC(=O)O[C@@H](C=CCC(C)C)C[C@@H]4CC[C@H](C)[C@@H](C[C@@H](OC)C[C@H](C2)O3)O4)co1 (field: composite z-score) = -0.27
